The values you see were collected from paper PMC6465675.

Attribute: CC50
# procedure_summary: in vitro
# protocol_conditions: Cercopithecus aethiops (monkey), Vero76 CC50

Some entries whose results are on file:
{"compound": "O=c1cnn([C@@H]2O[C@H](CO)[C@@H](O)[C@H]2O)c(=O)[nH]1 [6-Azauridine, reference compound]", "measured_result": "9.3 µM"}
{"compound": "O=S(=O)(c1ccccc1)n1cc(CNc2ccccc2)c(-c2ccc(Cl)cc2)n1 [7i]", "measured_result": "> 100 µM"}

// moving on: another record for CC50
QUERY: Query (compound): Cc1ccc(NCc2cn(S(=O)(=O)c3ccccc3)nc2-c2ccccc2)cc1 [7d] ; field requested: CC50
RESULT: ≥ 100 µM
